Test: Half life in male Sprague-Dawley rats
Type: ADME, organism-based
Details: rat, in vivo
Measurement name: half-life (h)
Give just the numeric value; h need not be written.

QUERY: Supply measured half-life of `Cc1c(COc2ccc(-c3ccc(S(=O)(=O)N[C@H](Cc4ccccc4)C(=O)O)cc3)cc2)oc2ccccc12` in your reply.
RESULT: 4.62

====

Target sequence: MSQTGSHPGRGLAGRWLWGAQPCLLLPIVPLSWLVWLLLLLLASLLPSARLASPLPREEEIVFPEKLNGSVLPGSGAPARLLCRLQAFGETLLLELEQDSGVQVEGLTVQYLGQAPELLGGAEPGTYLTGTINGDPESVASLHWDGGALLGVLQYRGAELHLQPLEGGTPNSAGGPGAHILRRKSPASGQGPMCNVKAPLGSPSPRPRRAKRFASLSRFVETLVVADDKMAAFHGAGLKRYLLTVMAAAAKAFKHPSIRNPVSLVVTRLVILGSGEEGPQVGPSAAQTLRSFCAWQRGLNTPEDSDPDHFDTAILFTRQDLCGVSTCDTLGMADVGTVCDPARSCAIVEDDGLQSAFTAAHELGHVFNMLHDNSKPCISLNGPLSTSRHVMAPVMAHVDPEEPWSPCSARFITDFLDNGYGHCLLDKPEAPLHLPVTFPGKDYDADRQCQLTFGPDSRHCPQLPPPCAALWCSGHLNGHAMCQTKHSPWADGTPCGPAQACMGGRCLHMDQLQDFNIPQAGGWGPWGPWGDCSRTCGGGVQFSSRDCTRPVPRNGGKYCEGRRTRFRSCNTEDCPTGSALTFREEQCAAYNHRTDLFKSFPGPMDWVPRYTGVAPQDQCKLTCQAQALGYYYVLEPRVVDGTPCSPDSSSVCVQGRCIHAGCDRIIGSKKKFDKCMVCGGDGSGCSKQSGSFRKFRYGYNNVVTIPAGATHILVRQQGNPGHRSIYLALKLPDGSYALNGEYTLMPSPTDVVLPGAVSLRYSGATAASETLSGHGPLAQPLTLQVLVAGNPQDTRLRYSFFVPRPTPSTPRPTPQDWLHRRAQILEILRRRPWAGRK
pIC50: −log10 of the molar value.
Where pIC50 equals or exceeds 5, the correct label is 1.0; where it does not, the label is 0.0.

Solved entries:
CC(C)[C@H](C(=O)O)N(C)S(=O)(=O)c1ccc(-c2ccccc2)cc1    1.0
CC(C)C(CC(=O)O)NS(=O)(=O)c1ccc(-c2ccccc2)cc1 (stereo not given)    0.0
CC(C)[C@@H](NS(=O)(=O)c1ccc(-c2ccc(CC(=O)c3cc4ccccc4o3)cc2)cc1)C(=O)O    1.0

QUERY: Dear colleague, could you confirm whether `CC(C)[C@H](NS(=O)(=O)c1ccc(-c2ccccc2)cc1)C(=O)O` has pIC50 at or above 5?
RESULT: 0.0

QUERY: Dear colleague, could you confirm whether `Cc1c(COc2ccc(-c3ccc(S(=O)(=O)N[C@H](Cc4ccccc4)C(=O)O)cc3)cc2)oc2ccccc12` has pIC50 at or above 5?
RESULT: 1.0

QUERY: Dear colleague, could you confirm whether `CC(C)[C@@H](NS(=O)(=O)c1ccc(-c2ccc(OCc3cc4ccccc4o3)cc2)cc1)C(=O)O` has pIC50 at or above 5?
RESULT: 1.0

QUERY: Dear colleague, could you confirm whether `CC(C)[C@@H](NS(=O)(=O)c1ccc(-c2ccc(OC(=O)c3cc4ccccc4o3)cc2)cc1)C(=O)O` has pIC50 at or above 5?
RESULT: 1.0
